test protocol: Cytotoxicity against human NFF cells incubated for 96 hrs by resazurin dye based assay
Assay type: toxicity, cell-based
assay conditions: read-out: MIC
assay endpoint: MCC at 96 h

>>> df
                                   compound  assay_endpoint       result
0  C[C@H]1c2c([C@@]3(C)CCCC(C)(C)C3)ccc(C(=O)O)c2C(=O)N1CC(=O)O     MCC at 96 h  > 100 µg/mL
1  C[C@@H]1c2c([C@@]3(C)CCCC(C)(C)C3)ccc(C(=O)O)c2C(=O)N1CC(=O)O     MCC at 96 h  > 100 µg/mL
2  CSC[S@@+]([O-])CC(CO)NC(=O)/C=C/c1c(C)[nH]c(=O)[nH]c1=O (stereo partly drawn)     MCC at 96 h    0.6 µg/mL
